- study-target: T1, Human CXCR2 (human, UniProt P25025 1-360)
- T1 sequence: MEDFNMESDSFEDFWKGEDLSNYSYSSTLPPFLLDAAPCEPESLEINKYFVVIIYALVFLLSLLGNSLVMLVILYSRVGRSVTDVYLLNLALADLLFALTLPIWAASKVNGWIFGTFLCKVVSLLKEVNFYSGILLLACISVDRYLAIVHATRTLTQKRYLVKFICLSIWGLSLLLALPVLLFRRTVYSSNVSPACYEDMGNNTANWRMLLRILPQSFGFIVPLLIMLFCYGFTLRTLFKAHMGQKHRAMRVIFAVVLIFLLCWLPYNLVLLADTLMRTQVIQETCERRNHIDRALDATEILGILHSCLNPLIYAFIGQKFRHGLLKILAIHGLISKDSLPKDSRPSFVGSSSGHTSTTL
- assay-procedure: cell-based or functional assay
endpoint-name: FLIPR IC50 (GRO-α induced calcium release) (nM)
// return numeric value only (unit: nM, not printed)

binder | measured-value
CXCR20022 (VHH, Bivalent: two VHH joined by a GlySer linker; also called 163D2-35GS-163D2; not shown: C-terminal c-myc tag and His6 tag coded by pAX100) EVQLVESGGGLVQAGGSLRLSCAASGRTFSDYAMGWFRQAPGKEREFVAAITWNGGRVFYTASVKGRFTISRDNAKNTMYLQMNSLKPEDTAVYYCAADKDRRTDYLGHPVAYWGQGTQVTVSSGGGGSGGGGSGGGGSGGGGSGGGGSGGGGSGGGGSEVQLVESGGGLVQAGGSLRLSCAASGRTFSDYAMGWFRQAPGKEREFVAAITWNGGRVFYTASVKGRFTISRDNAKNTMYLQMNSLKPEDTAVYYCAADKDRRTDYLGHPVAYWGQGTQVTVSS | 9.34

// below: FLIPR IC50 (GRO-α induced calcium release) requested for another binder
Briefly, FLIPR IC50 (GRO-α induced calcium release) measured for CXCR20015 (other, Two different VHH joined by a GlySer linker; also called 2B2-35GS-137B7; not shown: C-terminal c-myc tag and His6 tag coded by pAX100) EVQLVESGGELVQPGGSLRLSCAASGSILTINAMGWYRQAPGKQRELVVRRTRGGSTTYQDSVKGRFTISADIAKKTMYLQMNSLKPEDTAVYYCMLDDRGGVYWGQGTQVTVSSGGGGSGGGGSGGGGSGGGGSGGGGSGGGGSGGGGSEVQLVESGGGLVQPGGSVRLSCVASGIIFRLSALGWTRQGPGKAREWVAGINSDGTTNYADPVKGRFTISRDNAKNTIYLHMDMLKPEDTAVYYCASGKYRGQGTQVTVSS : 2.78

Hello, the source for this data is patent US20130330346A1, in case you need it.
